Tested on: HCC 2998
experiment_notes: NCI tumour cell line growth inhibition, 48 h
Active and inactive are the calls of the source. No stated cut-off is given here; in the data, active = GI50 up to about 1.1 µM and inactive = higher.

# compound, GI50
data = [
    ("O=C(Cn1c(=O)oc2ccc(C(=O)c3ccc(F)cc3)cc21)c1ccccc1", "> 100 µM (inactive)"),
    ("CC1(C)N=C(c2ccccn2)C(c2ccccn2)=NC1(C)C", "> 100 µM (inactive)"),
    ("N=C(c1ccccc1)N(c1ccccc1)c1ccccc1", "> 100 µM (inactive)"),
    ("Cc1cc2nc(C=C(C(F)(F)F)C(F)(F)F)oc2cc1C", "3.08 µM (inactive)"),
    ("CCS(=O)(=O)c1c2cc(OC)ccc2nc2ccc(OC)cc12", "> 100 µM (inactive)"),
    ("N#CC(C(=O)/C(=N/NC(=O)c1ccccc1O)C(C#N)c1ccccc1)c1ccccc1 (configuration not stated)", "> 100 µM (inactive)"),
    ("CCOC(=O)c1c(-c2ccc(Cl)cc2)c(C#N)c(=S)n(C2OC(COC(C)=O)C(OC(C)=O)C(OC(C)=O)C2OC(C)=O)c1C (configuration not stated)", "> 100 µM (inactive)"),
    ("CC(C)(C)NCc1cc(C(C)(C)C)cc(-c2ccc(Cl)cc2)c1O", "14.7 µM (inactive)"),
    ("CCOC(=O)C1C(c2ccc3c(c2)OCO3)c2c(n[nH]c2O)CC1(O)OCC (configuration not stated)", "> 100 µM (inactive)"),
    ("CC1(C)O[C@H](C(=O)O)[C@@H](C(=O)O)O1", "> 100 µM (inactive)"),
    ("COc1ccccc1NC(=O)CC(=O)N1N=C(c2ccccc2)C(/N=N/c2ccc(Cl)cc2)C1=O (configuration not stated)", "45.6 µM (inactive)"),
    ("CCOP(C)(=O)C(N)Cc1ccc(OC)c(OC)c1 (configuration not stated)", "> 100 µM (inactive)"),
    ("Cc1nc(C(N)=S)sc1C(=O)CC(=O)C(=O)Nc1nc2ccccc2[nH]1", "> 100 µM (inactive)"),
    ("COc1ccc(-c2cc(O)c3cc(C)cnc3n2)cc1", "14.5 µM (inactive)"),
    ("O/N=C1/CCCC/C1=C/C=C/c1ccccc1", "22.1 µM (inactive)"),
    ("Cc1nc(N)sc1C(=O)/C=C/c1ccc([N+](=O)[O-])cc1", "> 100 µM (inactive)"),
    ("COc1cc(/C=C2\\N=C(c3ccccc3)N(/N=C3\\C(=O)Nc4ccccc43)C2=O)cc(OC)c1OC", "> 100 µM (inactive)"),
    ("CN(C)c1ccc(/C=C(\\NC(=O)c2ccccc2)C(=O)NC(Cc2c[nH]c3ccccc23)C(=O)O)cc1 (configuration not stated)", "> 100 µM (inactive)"),
    ("CC1(C)C(=O)N(O)C(C)(C)N1O", "> 10 µM (inactive)"),
    ("O=C(/C=C/c1ccc(Cl)cc1)c1ccc(Cl)c(Cl)c1", "30.3 µM (inactive)"),
    ("N#C/C(=C\\c1ccc(O)c(O)c1)C(N)=O", "53.1 µM (inactive)"),
    ("COC1(C)Cc2c(c(C)c(O)c3c2C(=O)C=C(Cl)C3=O)O1 (configuration not stated)", "> 100 µM (inactive)"),
]
